# Test system: Acinetobacter baumannii T6474
# ASSAY SUMMARY: Bacterial growth minimal inhibitory concentration (broth microdilution, CLSI M7-A7)
# Type: cell-based
# CONDITION LABEL: Acinetobacter baumannii, T6474; cation-adjusted Mueller-Hinton Broth, microdilution; multiply-resistant (quinolone-resistant) strain; read-out: MIC for A. Baumannii T6474
MEASUREMENT NAME: MIC (µg/mL)

query_smiles=C[C@@](CCn1cc2cc(C#Cc3ccc(C4(CO)COC4)cc3)ccc2n1)(C(=O)NO)S(C)(=O)=O numeric_readout=2
query_smiles=C[C@@](CCn1cc2cc(C#Cc3ccc(C4(N)COC4)cc3)ccc2n1)(C(=O)NO)S(C)(=O)=O.Cc1ccc(S(=O)(=O)O)cc1 numeric_readout=2
query_smiles=C[C@@](CCn1cc2cc(-c3ccc(OCCO)cc3F)ccc2n1)(C(=O)NO)S(C)(=O)=O numeric_readout=2
